assay: Single dose oral pharmacokinetics study in female rats; type: in vivo, female Sprague Dawley rats; conditions: Sprague-Dawley, rat, plasma; Oral, 5.00 mg/kg, female S.D. rats
READOUT NAME: AUC(0-inf)

For CC1=C(c2ccc(O)cc2)C(c2ccc(OCCN3CC[C@@H](C)C3)cc2)Oc2cc(O)ccc21 (stereo partly shown) , what is its reported AUC(0-inf)? 671 ng·h/mL

---

assay: Single dose oral pharmacokinetics study in female rats; type: in vivo, female Sprague Dawley rats; details: Sprague-Dawley, rat, plasma; Oral, 5.00 mg/kg, female S.D. rats; read-out: AUClast (0 to 96 h)
READOUT NAME: AUC(0-t) (ng·h/mL)
Write the value in ng·h/mL as a bare number.

For CC1=C(c2ccc(O)cc2)C(c2ccc(OCCN3CC[C@@H](C)C3)cc2)Oc2cc(O)ccc21 (stereo partly shown) [OP-1038] , what is its reported AUC(0-t)? 603
